# credit: PubChem BioAssay (NCATS)

Test: Quantitative High-Throughput drug screen in 47 multiple myeloma cell lines against the NCATS MIPE library collection: MM1S_ATCC cell viability assay (AID 1918980); also: nearly all actives have a fitted effect of over 45% in size; also: potency is read from the fitted curve at half-maximal effect
Details: MM1S myeloma viability, CellTiter-Glo ATP luminescence, 48 h; series mostly up to 45.8 µM
Results filed as inconclusive are left out. Active and inactive are the calls of the source. Calls follow the shape of the dose curve; as a rule, active = well fitted cell-killing curve with a large enough effect; inconclusive = small, poorly fitted or top-dose-only effect, or effect the other way; inactive = no such curve, though single readings can be large or run the other way.
Measured Attribute: Potency

These recorded examples may help you get a feel for the data.
O=c1cc(O)c(Cl)c[nH]1	3.72 µM (active)
C[C@@H](CN1CC(=O)NC(=O)C1)N1CC(=O)NC(=O)C1	3.32 µM (active)
COc1cc([C@@H]2c3cc4c(cc3[C@H](O)[C@H]3COC(=O)[C@H]23)OCO4)cc(OC)c1OC	inactive
COc1cccc(N(C)C(=S)Oc2ccc3c(c2)CCCC3)n1	18.7 µM (active)
CNS(=O)(=O)CCc1ccc2[nH]cc(C3CCN(C)CC3)c2c1	0.469 µM (active)
O=NN(CCCl)C(=O)NC1CCCCC1	inactive
N[C@@H](C(=O)N[C@@H]1C(=O)N2C(C(=O)O)=C(Cl)CS[C@H]12)c1ccccc1	inactive
Cc1cc(NS(=O)(=O)c2ccc(N)cc2)no1	9.35 µM (active)

So for Oc1c(Cl)cc(Cl)c2cccnc12 , the logged Potency turned out to be 7.43 µM (active)

So for O[C@@H](CNC[C@H](O)[C@H]1CCc2cc(F)ccc2O1)[C@@H]1CCc2cc(F)ccc2O1 , the logged Potency turned out to be 20.9 µM (active)

So for COc1ccc(-c2ccc3cc(C(=O)O)ccc3c2)cc1C12CC3CC(CC(C3)C1)C2 , the logged Potency turned out to be 5.26 µM (active)

So for COc1cc2nc(N3CCCN(C)CC3)nc(NC3CCN(Cc4ccccc4)CC3)c2cc1OC , the logged Potency turned out to be 2.64 µM (active)

So for NC(=O)c1cccnc1 , the logged Potency turned out to be inactive

So for O=C(O)c1cc(=O)[nH]c(=O)[nH]1 , the logged Potency turned out to be inactive

So for CC(C(=O)O)c1ccc2c(c1)CC(=O)c1ccccc1S2 (configuration not stated) , the logged Potency turned out to be 2.96 µM (active)

So for COCCCOc1cc(C[C@@H](C[C@H](N)[C@@H](O)C[C@H](C(=O)NCC(C)(C)C(N)=O)C(C)C)C(C)C)ccc1OC , the logged Potency turned out to be 0.0743 µM (active)

So for CNC(=O)c1cc(Oc2ccc(NC(=O)Nc3ccc(Cl)c(C(F)(F)F)c3)cc2)ccn1 , the logged Potency turned out to be 3.72 µM (active)

So for CS(=O)(=O)c1ccc([C@@H](O)[C@@H](CO)NC(=O)C(Cl)Cl)cc1 , the logged Potency turned out to be 7.43 µM (active)

So for CCCCOc1ccc(CC(=O)NO)cc1 , the logged Potency turned out to be 2.64 µM (active)

So for Cc1nnc(C(=O)NC(C)(C)c2nc(C(=O)NCc3ccc(F)cc3)c(O)c(=O)n2C)o1 , the logged Potency turned out to be inactive

So for CC(C)OC(=O)OCOP(=O)(CO[C@H](C)Cn1cnc2c(N)ncnc21)OCOC(=O)OC(C)C , the logged Potency turned out to be 23.5 µM (active)

So for CC(=O)[C@H]1CC[C@H]2[C@@H]3CCC4=CC(=O)CC[C@]4(C)[C@H]3CC[C@]12C , the logged Potency turned out to be 3.72 µM (active)
